Overview of recorded plaque count per well for various molecules
system: Toxoplasma gondii RH tachyzoites; experiment: plaque count per well; higher = less inhibition; extreme values may be limits of the assay; conditions: 10 µM; 8-10 days
Lab note: jot down the number only; don't add units.

Use these answered entries as a reference point.
{"molecule": "CC(C)=CCN1CCC(C(=O)Nc2ccc(-c3nc4ccccc4[nH]3)cc2)CC1", "plaque count per well": 0}
{"molecule": "COc1ccc(NC(=O)C2c3ccccc3C(=O)N(CC(C)C)C2c2cccs2)cc1 (stereo unspecified)", "plaque count per well": 27}
{"molecule": "CCOC(=O)C1(Cc2ccccc2)CCN(Cc2cccc(OC)c2O)CC1", "plaque count per well": 0}
{"molecule": "O=C(Nc1ccc(-c2nc3ccccc3[nH]2)cc1)c1ccc(Cl)c(Cl)c1", "plaque count per well": 23}
{"molecule": "OC(CNC1CCCC1)Cn1c2ccccc2c2ccccc21 (stereo unspecified)", "plaque count per well": 0}

Record CCOc1cc2c(cc1OCC)C(c1cc(C)c(O)c(C)c1)NCC2 (stereo unspecified) has Toxoplasma gondii RH tachyzoites plaque count per well equal to 31

Observed plaque count per well on Toxoplasma gondii RH tachyzoites, entry COc1ccc(-c2cc3c(SCC(=O)Nc4cc(C(F)(F)F)ccc4Cl)nccn3n2)cc1 , equals 28

Record O=C(Nc1cccc(C2=NCCN2)c1)Nc1cccc(C2=NCCN2)c1 ; system Toxoplasma gondii RH tachyzoites; plaque count per well = 38

GET /values?item= Cc1cc(C=C2SC(=Nc3ccccc3)N(C3CCCC3)C2=O)c(C)n1-c1ccc(Cl)cc1 &system= Toxoplasma gondii RH tachyzoites returns plaque count per well: 23

# lookup: CC1CCN(Cc2c(O)ccc3cc(-c4nc5ccccc5s4)c(=O)oc23)CC1 on Toxoplasma gondii RH tachyzoites, plaque count per well = 0

Entry Cc1cc(NC(=O)c2ccc(-c3ccccc3)cc2)no1 ; assay system Toxoplasma gondii RH tachyzoites; plaque count per well recorded at 26

---

system: Toxoplasma gondii RH tachyzoites; assay: plaque count per well; higher = less inhibition; extreme values may be limits of the assay; conditions: 10 µM; 8-10 days
metric: plaque count per well
Please reply with the number alone, leaving off any unit.

Some molecules with known plaque count per well results, for comparison:
{"molecule": "CC(NCc1ccccc1)c1cc(Cl)ccc1O (stereo unspecified)", "assay_result": 29}
{"molecule": "Cc1ccc(C)c(-c2csc(Nc3ccc(C)c(C)c3)n2)c1", "assay_result": 22}
{"molecule": "CCOc1cccc(C(=O)Nc2ccc(-c3nc4ccccc4[nH]3)cc2)c1", "assay_result": 28}

Data point: CCOc1cc(Cl)c(C(C)NC(=O)c2ccccc2)cc1OCC (stereo unspecified) ; plaque count per well = 22

Kindly note the recorded plaque count per well for CCCCc1c(C)nc2c(OC)cccc2c1O , which is 0

Just so you know, measured plaque count per well for O=[N+]([O-])c1ccc(C=NNc2nc3ccccc3[nH]2)cc1 came out at 33

---

Listed here are compounds together with their documented % growth inhibition.
tested on: Toxoplasma gondii RH tachyzoites; experiment: % growth inhibition vs DMSO (48 h luciferase); higher = more inhibition; details: 10 µM
Reply with just the number (in %).

{"compound": "COc1ccc(-c2nc3cc(Cc4ccc5[nH]c(-c6ccc(OC)cc6)nc5c4)ccc3[nH]2)cc1", "% growth inhibition (%)": 100}
{"compound": "COc1cccc(-c2nn(C)c3sc(C(=O)NCCN4CCN(c5ccccc5F)CC4)cc23)c1", "% growth inhibition (%)": 1.85}
{"compound": "Cc1cc(Nc2ccc3ccccc3c2)n2ncnc2n1", "% growth inhibition (%)": 24.1}
{"compound": "Cc1ccc(Nc2nc(-c3ccccn3)cs2)cc1", "% growth inhibition (%)": 99.6}
{"compound": "COC(=O)c1ccc(Cl)c2c1C1C=CCC1C(c1cccc3ccccc13)N2 (configuration not stated)", "% growth inhibition (%)": 55.6}

Toxoplasma gondii RH tachyzoites % growth inhibition of OC(CNC1CCCC1)Cn1c2ccccc2c2ccccc21 (configuration not stated) is 15.9

Response field % growth inhibition (Toxoplasma gondii RH tachyzoites) for item COc1ccc2c(=O)cc(C(Cl)(Cl)Cl)oc2c1 : 84.4

Per the reported Toxoplasma gondii RH tachyzoites data, COc1ccc2nc(C)cc(Nc3cccc(O)c3)c2c1 has % growth inhibition of 19.7

Param item: N=c1c2ccccc2nnn1-c1cccc(C(F)(F)F)c1 ; param system: Toxoplasma gondii RH tachyzoites; output % growth inhibition: 64.1

Short answer on Toxoplasma gondii RH tachyzoites for CCCc1c(C)nc2ccc(Br)cc2c1O , % growth inhibition: 39.6

Field % growth inhibition (system: Toxoplasma gondii RH tachyzoites) for entry COc1ccc2nc(N)nc(C)c2c1 = 41.7

---

Quick list: plaque count per well per entry.
system: Toxoplasma gondii RH tachyzoites; experiment: plaque count per well; higher = less inhibition; extreme values may be limits of the assay; details: 10 µM; 8-10 days
Respond using a number only.

# count of solved cases: 2
{"smiles_representation": "COc1ccc(C)c2sc(N(Cc3cccnc3)C(=O)c3ccc(C#N)cc3)nc12", "target_entity": "Toxoplasma gondii RH tachyzoites", "metric": "plaque count per well", "assay_result": 23}
{"smiles_representation": "Cc1ccc(CSCc2ccc(C(=O)NC3CC3)o2)cc1", "target_entity": "Toxoplasma gondii RH tachyzoites", "metric": "plaque count per well", "assay_result": 25}

Please examine the following record next.
For O=C(NC1CCN(Cc2ccccc2)CC1)c1cc2nc(-c3ccc(Cl)s3)cc(C(F)(F)F)n2n1 the compound record lists plaque count per well as 22

---

system: Toxoplasma gondii RH tachyzoites; experiment: % growth inhibition vs DMSO (48 h luciferase); higher = more inhibition; conditions: 10 µM
metric: % growth inhibition (%)
// return numeric value only (unit: %, not printed)

Some compounds with recorded % growth inhibition:
{"compound": "CCOc1ccc(Nc2ccnc3cc(Cl)ccc23)cc1", "% growth inhibition (%)": 64.1}
{"compound": "CCOc1c(Cl)cc(CNCC(O)c2ccccc2)cc1OC (configuration not stated)", "% growth inhibition (%)": 21.7}
{"compound": "CSc1ccccc1C(=O)Nc1nc(-c2ccccn2)cs1", "% growth inhibition (%)": 99.4}
{"compound": "Cc1cc(N2CCCC2)nc(Nc2ccc(NC(=O)CCc3ccccc3)cc2)n1", "% growth inhibition (%)": 96.1}
{"compound": "CCN(CC)CCNc1ccnc2cc3ccccc3cc12", "% growth inhibition (%)": 32.4}
{"compound": "CCN(CC)CCNc1ncnc2c1[nH]c1ccc(Br)cc12", "% growth inhibition (%)": 7.24}

get_value(item= Oc1c(CN2CCN(c3ccccc3F)CC2)cc(Br)c2cccnc12 , readout=% growth inhibition) returns 74.2

---

tested on: Toxoplasma gondii RH tachyzoites; experiment: plaque count per well; higher = less inhibition; extreme values may be limits of the assay; conditions: 10 µM; 8-10 days
The entries below are paired with their reported plaque count per well.
Give only the figure.

Illustrative cases are given below, each with its answer.
{"compound": "COc1ccc(C(=O)Nc2nonc2-c2ccc(OC)c(OC)c2)cc1Cl", "plaque count per well": 20}
{"compound": "OC(CNC1CCCCC1)Cn1c2ccccc2c2ccccc21 (stereo unspecified)", "plaque count per well": 21}
{"compound": "CCN1CCN(Cc2ccc(NC(=O)c3cc4ccc5cccnc5c4[nH]3)cc2)CC1", "plaque count per well": 31}

plaque count per well recorded for this compound, O=C(NCC(c1ccsc1)N1CCCCCC1)c1ccc(C(F)(F)F)cc1 (stereo unspecified) , is 0

plaque count per well reading for Cc1ccc(N2C3c4ccccc4N(S(=O)(=O)c4ccc(C)cc4)C2c2ccccc2N3S(=O)(=O)c2ccc(C)cc2)cc1 : 0

---

molecular target: Toxoplasma gondii RH tachyzoites; test: EC50 growth inhibition (48 h luciferase)
Categorized via EC50 growth inhibition: lowest (below 400 nM), middle (400 nM to below 4000 nM), highest (4000 nM or more)

Recorded results for 5 molecules are shown here.
{"molecule": "O=C(Nc1ccc(CN2CCOCC2)cc1)c1ccc(-c2cc(Cl)ccc2Cl)o1", "target_entity": "Toxoplasma gondii RH tachyzoites", "answer_label": "highest"}
{"molecule": "CCCCCCC(O)(c1ccc(F)cc1)C(CN1CCOCC1)c1ccccc1 (stereo unspecified)", "target_entity": "Toxoplasma gondii RH tachyzoites", "answer_label": "middle"}
{"molecule": "Clc1cc(Br)ccc1-c1ccc(CNCC2CCNCC2)o1", "target_entity": "Toxoplasma gondii RH tachyzoites", "answer_label": "lowest"}
{"molecule": "COCCNCC(O)Cn1c2ccc(Cl)cc2c2cc(Cl)ccc21 (stereo unspecified)", "target_entity": "Toxoplasma gondii RH tachyzoites", "answer_label": "highest"}
{"molecule": "OC1=C2C(=Nc3ccccc3SC2c2ccc(Br)cc2)c2ccccc21 (stereo unspecified)", "target_entity": "Toxoplasma gondii RH tachyzoites", "answer_label": "middle"}

Now look at this entry.
### Prompt Returns: class label. Input: Oc1ccc2ccccc2c1CNc1nc2ccccc2[nH]1
### Response middle

---

% growth inhibition listing for selected compounds.
tested on: Toxoplasma gondii RH tachyzoites; test: % growth inhibition vs DMSO (48 h luciferase); higher = more inhibition; conditions: 10 µM
Value expressed in %; do not type the unit.

{"compound": "CCCCNCC(O)(c1ccc(Cl)cc1)c1ccc(Cl)cc1", "% growth inhibition, %": 97.5}
{"compound": "Cc1cccc(-n2ncc3c(O)nc(-n4nc(C)cc4NC(=O)c4cc5ccccc5o4)nc32)c1", "% growth inhibition, %": 30.2}
{"compound": "CC1(c2ccccc2)Nc2ccccc2-c2nc3ccccc3n21 (configuration not stated)", "% growth inhibition, %": 24.3}

The reported value for FC(F)(F)c1cccc(Nc2nc3ccccc3nc2Nc2cccc(C(F)(F)F)c2)c1 in terms of % growth inhibition is 99.5

Looking up CCCCCCC(O)(c1ccc(F)cc1)C(CN1CCOCC1)c1ccccc1 (configuration not stated) , I found its % growth inhibition recorded as 100

Form: compound = COc1cc(-c2nc(-c3ccc(Sc4ccccc4)cc3)c(-c3ccccc3)[nH]2)cc(OC)c1O ; % growth inhibition = 98.6

% growth inhibition in this record for CCCCNc1nc(NC(C)(C)C)nc(NC(C)(C)C)n1 : 93.8

GET /value?item= CSC1=NC(=Nc2c(C)cccc2C)C2(CCC(C(C)(C)C)CC2)N1c1ccc(Cl)cc1 (configuration not stated) &field=% growth inhibition returns 99.9

Entry COc1cc(CNCCc2ccc(Cl)cc2)cc(OC)c1O , % growth inhibition reported as 51.4

Entry under test: Cc1ccc2cc3c(N)c4c(C)ccc(C)c4nc3nc2c1 . Its % growth inhibition was 56.3

Briefly, % growth inhibition measured for CC(C)(C)C(=O)Nc1ccc(C(=O)Nc2cccc(-c3nc4ccccc4[nH]3)c2)cc1 : 88.4

% growth inhibition measured on COc1ccc(/C=C2/SC(=Nc3ccccc3)NC2=O)cc1 = 22.4

compound CC(C)OCc1cc(CN2CCN(c3cccc(Cl)c3)CC2)c(O)c2ncccc12 , % growth inhibition observed: 81.6

Lab book: % growth inhibition of COc1ccc(-c2nonc2NC(=O)c2cccc(C)c2)cc1OC noted as 3.28
